Cited source: patent US10316021B2

Give measured log10 Ki for each item. Keep answers brief.
Target: human kappa opioid receptor (hKOR) (Homo sapiens, UniProt P41145)
Construct: expressed in transfected cells; host or cells: CHO cells
Sequence (P41145 whole entry): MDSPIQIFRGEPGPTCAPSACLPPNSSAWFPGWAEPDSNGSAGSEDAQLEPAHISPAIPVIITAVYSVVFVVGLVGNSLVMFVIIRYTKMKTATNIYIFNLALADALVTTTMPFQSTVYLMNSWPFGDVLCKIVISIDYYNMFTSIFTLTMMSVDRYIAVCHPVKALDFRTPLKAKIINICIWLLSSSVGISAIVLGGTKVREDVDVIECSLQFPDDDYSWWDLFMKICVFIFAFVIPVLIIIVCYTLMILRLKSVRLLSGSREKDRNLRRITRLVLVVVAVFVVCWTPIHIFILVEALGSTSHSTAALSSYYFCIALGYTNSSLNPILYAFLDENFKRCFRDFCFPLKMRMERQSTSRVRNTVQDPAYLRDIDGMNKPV
Experiment: Kappa radioligand binding assay ([3H]diprenorphine, CHO cell membranes)
Settings: Table 20; radioligand binding; read-out: hKOR binding assay Ki
The figures below represent log10 of Ki, where Ki is stated in nM.

[in] # return recorded log10 Ki for entry COc1cc(C2CCCN2Cc2ccc(Oc3ccc(C(N)=O)cc3)cc2)n(C)n1 (single isomer, unassigned)
[out] -0.18

[in] # return recorded log10 Ki for entry NC(=O)c1ccc(Oc2ccc(CN3CCCC3c3cccnc3)cc2)c(Cl)c1 (stereo not drawn)
[out] 0.08

[in] # return recorded log10 Ki for entry COc1nn(C)cc1C1CCCN1Cc1ccc(Oc2ccc(C(N)=O)cc2F)cc1 (single isomer, unassigned; (-))
[out] 0.41

[in] # return recorded log10 Ki for entry Cc1cc(C2CCCN2Cc2ccc(Oc3ccc(C(N)=O)cc3F)cc2)nn1C (stereo not drawn)
[out] 1.16

[in] # return recorded log10 Ki for entry `Cc1nn(C)cc1[C@@H]1CCCN1Cc1ccc(Oc2ccc(C(N)=O)cc2)cc1`
[out] 0.08

[in] # return recorded log10 Ki for entry Cc1c(C2CCCN2Cc2ccc(Oc3ccc(C(N)=O)cc3F)cc2)cnn1C (single isomer, unassigned)
[out] 0.46

[in] # return recorded log10 Ki for entry `Cc1nc([C@@H]2CCCN2Cc2ccc(Oc3ccc(C(N)=O)cc3)cc2)ns1`
[out] 0.60

[in] # return recorded log10 Ki for entry Cc1nn(C)c(C)c1C1CCCN1Cc1ccc(Oc2ccc(C(N)=O)cc2F)cc1 (racemic)
[out] 1.12

[in] # return recorded log10 Ki for entry Cc1cnn(C)c1C1CCCN1Cc1ccc(Oc2ccc(C(N)=O)cc2F)cc1 (stereo not drawn)
[out] 1.23

----------
System: isolated rat mitochondria
Assay: Respirometric screening technology (RST) assay
Format: biochemical
Readout: activity in the RST assay (inhibition / uncoupling of oxidative phosphorylation), in words

Below are worked cases with known answers.
[[record]]
compound = "Cc1nn(C)cc1[C@@H]1CCCN1Cc1ccc(Oc2ccc(C(N)=O)cc2)cc1 [Example 11]"
value_reported = "no significant activity"

[[record]]
compound = "COc1nn(C)cc1C1CCCN1Cc1ccc(Oc2ccc(C(N)=O)cc2F)cc1 (single isomer, unassigned; (-)) [Example 8]"
value_reported = "no significant activity"

[[record]]
compound = "NC(=O)c1ccc(Oc2ccc(CN3CCCC3c3cccnc3)cc2)c(Cl)c1 (centres unmarked) [Comparator C]"
value_reported = "μM inhibitory activity"

[[record]]
compound = "COc1nn(C)cc1[C@@H]1CCCN1Cc1ccc(Oc2ccc(C(N)=O)cc2)cc1 (single isomer, unassigned) [Example 12]"
value_reported = "no significant activity"


As a next step, examine the compound that follows.
[in] Please indicate recorded activity in the RST assay (inhibition / uncoupling of oxidative phosphorylation), in words of Cc1cc(C)cc([C@@H]2CCCN2Cc2ccc(Oc3ccc(C(N)=O)cc3F)cc2)c1 [Comparator E, reference compound] measured with isolated rat mitochondria.
[out] μM inhibitory activity

----------
Target: human mu opioid receptor (hMOR) (Homo sapiens, UniProt P35372)
Construct: expressed in transfected cells; host or cells: CHO cells
Sequence (P35372 whole entry): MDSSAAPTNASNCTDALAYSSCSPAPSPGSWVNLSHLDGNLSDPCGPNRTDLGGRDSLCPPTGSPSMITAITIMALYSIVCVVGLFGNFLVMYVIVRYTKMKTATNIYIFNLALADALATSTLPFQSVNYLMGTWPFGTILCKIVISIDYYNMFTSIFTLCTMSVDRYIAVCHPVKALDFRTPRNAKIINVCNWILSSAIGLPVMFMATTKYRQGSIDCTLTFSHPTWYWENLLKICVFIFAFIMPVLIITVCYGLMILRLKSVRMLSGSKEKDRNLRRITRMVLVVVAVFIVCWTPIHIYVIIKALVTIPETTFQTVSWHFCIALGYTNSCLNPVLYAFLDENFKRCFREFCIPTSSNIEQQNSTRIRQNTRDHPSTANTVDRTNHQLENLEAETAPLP
Assay: Mu radioligand binding assay ([3H]diprenorphine, CHO cell membranes)
Conditions: radioligand binding, [3H]diprenorphine; read-out: hMOR Ki
Give measured pKi for each item. Keep answers brief.
Here pKi is given on a logarithmic scale as minus log10 of the concentration in mol/L.

[in] # return recorded pKi for entry COc1nn(C)cc1C1CC(F)CN1Cc1ccc(Oc2ccc(C(N)=O)cc2)cc1 (stereo not drawn) [isomer of Example 24]
[out] 5.92

[in] # return recorded pKi for entry COc1cc(C2CCCN2Cc2ccc(Oc3ccc(C(N)=O)cc3)cc2)n(C)n1 (single isomer, unassigned) [enantiomer of Example 46]
[out] 6.92

[in] # return recorded pKi for entry COc1nn(C)cc1C1CCCN1Cc1ccc(Oc2ccc(C(N)=O)c(O)c2)cc1 (single isomer, unassigned) [enantiomer of Example 33]
[out] 6.51

[in] # return recorded pKi for entry Cc1nn(C)nc1C1CCCN1Cc1ccc(Oc2ccc(C(N)=O)cc2)c(F)c1 (single isomer, unassigned) [enantiomer of Example 39]
[out] 6.88
